System: E. coli TESEC Mtb Alr
Assay: growth (OD600 after 10 h); higher = more growth (less inhibition)
Settings: arabinose 10000000 nM; compound 0.1 mM; raw OD600 reference: median of DMSO wells […], cell-free background 0.052
Where a name gives a salt, the structure may show the parent alone.
property_measured: growth

See these solved cases before continuing.
O=C(CCCN1CCC2(CC1)C(=O)NCN2c1ccccc1)c1ccc(F)cc1; 0.354
CC(=O)OC1CN2CCC1CC2 (configuration not stated) [Aceclidine Hydrochloride]; 0.359
CN(C)C(=O)Oc1ccc[n+](C)c1 [Pyridostigmine iodide]; 0.355

Please give the measured growth for this molecule: O=c1c2ccccc2[se]n1-c1ccccc1
0.346

Values were extracted from the supplement of paper PMC9262897.
